system: 953936-095-R-J2-PDC spheroids with HUVEC/MSC, viability; assay: Anticancer human tumor 953936-095-R-J2-PDC patient-derived cervical squamous cell carcinoma cell line growth inhibition [PI3K]; details: second compound 0.01 µM; first compound 0.1 µM; hits give low values
Output Condition met for records whose viability, T/C is lower than 90%, Condition not met for records at or above 90%.

Solved cases (5 shown):
- compound: "CC(C)NCC(C(=O)N1CCN(c2ncnc3c2C(C)CC3O)CC1)c1ccc(Cl)cc1 (stereo unspecified) + CC(Nc1ccc2c(c1)OCCn1cc(N3C(=O)OCC3C(F)F)nc1-2)C(N)=O"
  cat: "Condition met"
- compound: "CC(=O)c1c(C)c2cnc(Nc3ccc(N4CCNCC4)cn3)nc2n(C2CCCC2)c1=O + COc1c(OCCCN2CCOCC2)ccc2c3n(c(=NC(=O)c4cnc(N)nc4)nc12)CCN3"
  cat: "Condition met"
- compound: "CC1(C)CCC(Nc2ncc(C(F)(F)F)c(-c3c[nH]c4c(P(C)(C)=O)c(C#N)ccc34)n2)CN1 (stereo unspecified) + CC(Nc1ccc2c(c1)OCCn1cc(N3C(=O)OCC3C(F)F)nc1-2)C(N)=O"
  cat: "Condition met"
- compound: "Cn1ncc(Cl)c1-c1cc(C(=O)NC(CN)Cc2cccc(F)c2)sc1Cl (stereo unspecified) + COc1c(OCCCN2CCOCC2)ccc2c3n(c(=NC(=O)c4cnc(N)nc4)nc12)CCN3"
  cat: "Condition met"
- compound: "CC(Cn1ccc(-c2ccc(C#N)c(Cl)c2)n1)NC(=O)c1cc(C(C)O)[nH]n1 (stereo unspecified) + COc1c(OCCCN2CCOCC2)ccc2c3n(c(=NC(=O)c4cnc(N)nc4)nc12)CCN3"
  cat: "Condition met"

Does the reported viability, T/C of CCCS(=O)(=O)Nc1ccc(F)c(C(=O)c2c[nH]c3ncc(-c4ccc(Cl)cc4)cc23)c1F + CC(Nc1ccc2c(c1)OCCn1cc(N3C(=O)OCC3C(F)F)nc1-2)C(N)=O stay below 90%? Condition not met

Does the reported viability, T/C of C#Cc1c(F)ccc2cc(O)cc(-c3ncc4c(N5CC6CCC(C5)N6)nc(OCC56CCCN5CC(F)C6)nc4c3F)c12 (stereo unspecified) + COc1c(OCCCN2CCOCC2)ccc2c3n(c(=NC(=O)c4cnc(N)nc4)nc12)CCN3 stay below 90%? Condition met

Does the reported viability, T/C of CNC(=O)c1ccc(N2C(=S)N(c3ccc(C#N)c(C(F)(F)F)c3)C(=O)C2(C)C)cc1F + COc1c(OCCCN2CCOCC2)ccc2c3n(c(=NC(=O)c4cnc(N)nc4)nc12)CCN3 stay below 90%? Condition met

Does the reported viability, T/C of Cn1nccc1Nc1nccc(-c2ccn(C(CO)c3ccc(Cl)c(F)c3)c(=O)c2)n1 (stereo unspecified) + CC(Nc1ccc2c(c1)OCCn1cc(N3C(=O)OCC3C(F)F)nc1-2)C(N)=O stay below 90%? Condition not met

Does the reported viability, T/C of Cn1ncc(Cl)c1-c1cc(C(=O)NC(CN)Cc2cccc(F)c2)sc1Cl (stereo unspecified) + CC(Nc1ccc2c(c1)OCCn1cc(N3C(=O)OCC3C(F)F)nc1-2)C(N)=O stay below 90%? Condition met

###

Tested on: 953936-095-R-J2-PDC spheroids with HUVEC/MSC, viability
Experiment: Anticancer human tumor 953936-095-R-J2-PDC cell line growth inhibition [PI3K];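 note: spheroids exposed to compounds for seven days before read-out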
Conditions: second compound 0.01 µM; first compound 0.1 µM; hits give low values
From the text: Combinatorial screen of targeted agents with the PI3K inhibitors inavolisib, alpelisib, duvelisib, and copanlisib in multi-cell type tumor spheroids A high-throughput screen of multi-cell type tumor spheroids was designed to identify active combinations of targeted small molecules and PI3K pathway inhibitors. […] Compounds. […] If the clinical Cmax for an agent had not been determined, the highest concentration tested was 10 microM. […]
attribute.measured: viability, T/C (%)
Use % as the unit, but write only the number.

Here are 2 molecules together with their reported answers.
- molecule: "CC(C)NCC(C(=O)N1CCN(c2ncnc3c2C(C)CC3O)CC1)c1ccc(Cl)cc1 (stereo not drawn) + COc1c(OCCCN2CCOCC2)ccc2c3n(c(=NC(=O)c4cnc(N)nc4)nc12)CCN3"
  attribute.measured: "viability, T/C"
  measured.value: 69.2
- molecule: "CNC(=O)c1ccc(N2C(=S)N(c3ccc(C#N)c(C(F)(F)F)c3)C(=O)C2(C)C)cc1F + CC(Nc1ccc2c(c1)OCCn1cc(N3C(=O)OCC3C(F)F)nc1-2)C(N)=O"
  attribute.measured: "viability, T/C"
  measured.value: 92.7

Reported viability, T/C for C#Cc1c(F)ccc2cc(O)cc(-c3ncc4c(N5CC6CCC(C5)N6)nc(OCC56CCCN5CC(F)C6)nc4c3F)c12 (stereo not drawn) + CC(Nc1ccc2c(c1)OCCn1cc(N3C(=O)OCC3C(F)F)nc1-2)C(N)=O : what is it? 95

Just for reference, PubChem BioAssay AID1963971 is where these values come from.
